test: osmotic lysis modulators in infected erythrocytes, primary screen, PSAC antagonist project, cell-based, P. falciparum Indochina, OD700, 3 h (AID 1156); conditions: higher = more signal, called active from +8 up or from −8 down
Active and inactive are the calls of the source.
measured_attribute: z-score

Please review the following examples before continuing.
1) CCCCC=C[C@@H](NC(=O)c1ccco1)c1ccccc1 : -0.279 (inactive)
2) CCCN1C(=O)[C@@]2(CCC(=O)OC(C)(C)C)N=C(c3ccc(OCCCO)cc3)O[C@H]2c2ccccc21 : 3.51 (inactive)
3) O=C(NCc1ccccc1)[C@]1(CCS(=O)(=O)c2ccccc2)N=C(c2ccc(OCCCO)cc2)O[C@@H]1c1ccccc1 : 1.85 (inactive)
4) O=C1C2C=CC(C(O)c3ccc(B(O)O)cc3)N(Nc3ccccc3)C2C(=O)N1c1ccccc1 (stereo unspecified) : 0.977 (inactive)
5) COC(=O)C1=CC(CCCO)=CC(C2CC2)N(Cc2sc3ccccc3c2Cl)C=C1C(=O)OC (stereo unspecified) : 0.901 (inactive)

Prompt: Annotate the compound CCOc1cc(C(O)C2C=CC3C(=O)N(c4ccccc4)C(=O)C3N2Nc2ccc([N+](=O)[O-])cc2)ccc1O (stereo unspecified) with its measured z-score.
Response: 0.839 (inactive)

###

target: NADPH oxidase 2 (Homo sapiens) (UniProt P04839); test: NOX2-dependent H2O2 signal modulators, primary screen, NOX inhibitor project, cell-based, HEK293-NOX2, PMA-stimulated, Amplex Red fluorescence (AID 1159); conditions: 45 min, higher = more signal, called active from +8 up or from −8 down; further: test concentration not given here
Sequence (P04839 whole entry, looked up): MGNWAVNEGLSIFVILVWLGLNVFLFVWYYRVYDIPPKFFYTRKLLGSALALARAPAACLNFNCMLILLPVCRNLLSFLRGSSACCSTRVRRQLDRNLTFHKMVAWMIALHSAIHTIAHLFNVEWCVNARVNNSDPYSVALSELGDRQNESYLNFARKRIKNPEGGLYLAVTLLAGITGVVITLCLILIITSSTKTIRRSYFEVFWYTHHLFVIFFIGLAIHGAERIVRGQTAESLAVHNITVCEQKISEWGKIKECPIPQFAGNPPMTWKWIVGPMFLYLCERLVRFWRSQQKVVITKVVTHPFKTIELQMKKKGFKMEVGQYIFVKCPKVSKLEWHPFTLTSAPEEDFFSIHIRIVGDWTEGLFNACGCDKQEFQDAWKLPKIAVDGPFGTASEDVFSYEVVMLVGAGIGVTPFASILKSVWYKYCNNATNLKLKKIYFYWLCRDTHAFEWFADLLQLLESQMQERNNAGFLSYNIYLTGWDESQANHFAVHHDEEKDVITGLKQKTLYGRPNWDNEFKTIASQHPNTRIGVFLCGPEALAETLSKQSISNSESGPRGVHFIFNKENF
Listed here: items and their measured z-score.
Note: the reply should be a number with no unit written.

Please review the following examples before continuing.
1. CC(c1ccccc1)C(O)C1C=CC2C(=O)NC(=O)C2N1Nc1ccccn1 (stereo not drawn) : -0.479
2. NC(=O)NCC#Cc1ccc2c(c1)[C@]1(C(=O)N2)[C@H](C(=O)NC[C@H](O)c2ccccc2)[C@H]2C(=O)O[C@H](c3ccccc3)[C@H](c3ccccc3)N2[C@@H]1c1ccc(O)cc1 : 1.3

Query compound follows.
Prompt: Annotate the compound C=CCC(OC(C)=O)[C@@H]1[C@@H](N(Cc2cccc3ccccc23)C(=O)c2cccc3ccccc23)c2cc(OCCCO)ccc2N1C(=O)c1ccc2ccccc2n1 (stereo partly drawn) with its measured z-score.
Response: -0.62

###

assay: CREB reporter modulators without forskolin, primary screen, cell-based, PC12, CRE-LacZ reporter, unstimulated (AID 1145); conditions: no forskolin, luminescence, 4.5 h, higher = more signal, called active from +8 up or from −8 down
Listed here: items and their measured z-score.
Note: the reply should be a number with no unit written.

Please review the following examples before continuing.
1) CC(=O)C1=CCC(c2ccccc2)N(S(=O)(=O)c2ccc(C)cc2)C1 (centres undefined) : -0.116
2) C[C@H]1NC(=O)[C@H](Cc2ccccc2)NC(=O)[C@@]23C(=O)N[C@@H](Cc4ccccc4)C2[C@H](C)[C@@]2(C)O[C@H]2C3/C=C/C/C=C\CNC1=O (some centres undefined) : 2.67
3) COc1ccc(C#Cc2ccc3c(c2)[C@]2(C(=O)N3)[C@H](c3ccc(O)cc3)N3[C@H](c4ccccc4)[C@H](c4ccccc4)OC(=O)[C@H]3[C@@H]2C(=O)NC[C@H](O)c2ccccc2)cc1 : -0.0246
4) CCCCC=C[C@@H](NC(=O)c1ccc(C(=O)OC)cc1)c1ccccc1 : -0.185
5) CC(=O)NCCCC[C@@H]1NC(=O)[C@@H]2C[C@H](C(=O)NCCCCN(C)C)[C@H](c3ccc(O)cc3)N2C1=O : -0.809

Prompt: Annotate the compound [N-]=[N+]=NCc1ccccc1C[C@]1(C(=O)NCCN2CCOCC2)N=C(c2ccc(OCCCO)cc2)O[C@H]1c1ccccc1N=[N+]=[N-] with its measured z-score.
Response: 1.65
